# Test system: IGROV1 ovarian
# Method Summary: NCI tumour cell line growth inhibition, 48 h
Quantity Name: TGI

{"Compound": "CCOC(=O)CC(C)C(C#N)(OP1(=O)OC(c2ccccc2)C(C)N1C)c1ccccc1 (stereo not given)", "TGI": "> 100 µM"}
{"Compound": "Cn1ncc2cc(-c3cnc(N)c(Cl)c3N3CCC4(CCNC4=O)CC3)ccc21", "TGI": "> 100 µM"}
{"Compound": "N#C/C(=C\\c1ccc(CP(=O)(O)O)cc1)C(N)=O", "TGI": "> 100 µM"}
{"Compound": "Cc1cc(Br)c(N2C3=C(CC4=C2CCCC4=O)C(=O)CCC3)c(Br)c1", "TGI": "> 100 µM"}
{"Compound": "Cc1nc2sc(C(=O)Nc3cccc4ccccc34)c(N)c2cc1C(C)O (stereo not given)", "TGI": "> 50 µM"}
{"Compound": "COC1/C=C\\C=C(/C)C(=O)NC2=CC(=O)C(NCCCl)=C(CC(C)CC(OC)C(O)C(C)/C=C(/C)C1OC(N)=O)C2=O (stereo not given)", "TGI": "13.6 µM"}
{"Compound": "CC(C)(C)c1nc2c(o1)C(=Nc1ccccc1)c1ccccc1C2=O", "TGI": "33.6 µM"}
{"Compound": "O=S(=O)(O)c1ccc(NN(c2c(O)ccc3ccccc23)S(=O)(=O)O)cc1", "TGI": "> 100 µM"}
{"Compound": "CCC(=O)Sc1ccccc1C(=O)Nc1ccc(Cl)cc1", "TGI": "> 100 µM"}

Tell me the measured TGI of O=C(Cc1ccccc1)Oc1ccc2c(-c3ccccc3)c(C(=O)Nc3ccc(Cl)cc3)c(=O)oc2c1 , please.
> 100 µM

----------
# Tested on: DLD-1 colon
# Method Summary: NCI tumour cell line growth inhibition, 48 h
// values below are reported TGI

{"Molecule": "c1cnc2c(c1)-n1cccc1C1(CCOCC1)NN2", "TGI": "> 100 µM"}
{"Molecule": "COC1/C=C\\C=C(/C)C(=O)NC2=CC(=O)C(NCCCl)=C(CC(C)CC(OC)C(O)C(C)/C=C(/C)C1OC(N)=O)C2=O (centres undefined)", "TGI": "11.6 µM"}
{"Molecule": "COC(=O)OCC1OC(N2C(=O)NC(=O)C(I)C2N=[N+]=[N-])CC1OC(=O)OC (centres undefined)", "TGI": "> 100 µM"}
{"Molecule": "COc1ccc(CC(=O)c2cc(OC)c(OC)cc2C)cc1OC", "TGI": "> 100 µM"}
{"Molecule": "C=CCN1C(=O)CS/C1=N\\NC(=O)c1c(C)nc2sccn12", "TGI": "> 100 µM"}
{"Molecule": "C=C1C(=O)O[C@@H]2C[C@]3(C)[C@@H](C[C@H]12)[C@](C)(O)CC[C@@H]3O", "TGI": "> 100 µM"}
{"Molecule": "COC(=O)/C(=C/c1ccc(OC)cc1)C(C(=O)O)=C(C)C", "TGI": "> 100 µM"}
{"Molecule": "O=C(NC1CCCCC1)c1c(O)[nH]c(=S)[nH]c1=O", "TGI": "> 100 µM"}

Tell me the measured TGI of CC(=O)O[C@]1(C(C)=O)CC[C@H]2[C@@H]3C[C@H](C)C4=CC(=O)C=C[C@]4(C)[C@@]3(F)[C@@H](O)C[C@@]21C , please.
> 100 µM

Next entry: Cc1ccc(OP2(=O)Oc3ccc4ccccc4c3CN2c2ccc(Cl)cc2)cc1C (centres undefined)
> 100 µM

Next entry: N#C/C(=C\c1ccc(CP(=O)(O)O)cc1)C(N)=O
> 100 µM

----------
# Tested on: NCI-H460 lung
# Method Summary: NCI tumour cell line growth inhibition, 48 h
Where a SMILES comes first, the peptide text is derived from it. [ ]: non-standard residue; d: D form. The star is where a group is joined. hSer = N[CH](CCO)C(=O)O; Boc = CC(C)(C)OC(=O)*
Quantity Name: TGI

Tell me the measured TGI of C=C(NC(=O)C(=C)NC(=O)c1csc(C2=NC3c4csc(n4)C4NC(=O)c5csc(n5)C(C(C)(O)C(C)O)NC(=O)C5CSC(=N5)/C(=C/C)NC(=O)C(C(C)O)NC(=O)c5csc(n5)C3(CC2)NC(=O)C(C)NC(=O)C(=C)NC(=O)C(=C)NC(=O)C(C(C)C)NC2C=Cc3c(C(C)O)cc(nc3C2O)C(=O)OC4C)n1)C(N)=O (configuration not stated) , please.
59.7 µM

Next entry: c1ccc(COc2ccc(C[P+](c3ccccc3)(c3ccccc3)c3ccccc3)cc2)cc1
3.81 µM

Next entry: COCCC(NC(=O)C(CC(C)C)NC(=O)OC(C)(C)C)C(N)=O (stereo not drawn) (Boc-Leu-[hSer](Me)-NH2; configuration not given here)
> 100 µM

Next entry: CCOc1ncn(-c2ccc(NC(=S)Nc3cccc(O)c3)cc2)n1
> 100 µM

Next entry: Cc1ccc(-c2cc(-c3ccco3)nc(N)n2)o1
> 100 µM

Next entry: CCOC(=O)c1cc2cc(Cc3ccc4[nH]c(C(=O)OCC)cc4c3)ccc2[nH]1
> 100 µM

Next entry: COc1ccc(C(CC(=O)c2ccccc2)C(C(=O)c2ccccc2)C(c2ccc(OC)cc2)C2C(=O)NC(=O)NC2=O)cc1 (configuration not stated)
> 100 µM

----------
# Test system: NCI-H226 lung
# Method Summary: NCI tumour cell line growth inhibition, 48 h
Quantity Name: TGI

For orientation, consider the following solved cases.
{"Compound": "Nc1cc2c(cc1[N+](=O)[O-])[nH]c1c(-c3ccccc3)nccc12", "TGI": "56.5 µM"}
{"Compound": "COC(=O)C(=O)C(C(=O)C(=O)Nc1ccccc1C(=O)OC)c1nc2ccc(C(=O)c3ccccc3)cc2[nH]c1=O (centres undefined)", "TGI": "> 100 µM"}
{"Compound": "N/C(CC/C(N)=N\\O)=N\\O", "TGI": "> 100 µM"}
{"Compound": "Oc1c(Cl)c2nccnc2c2ccccc12", "TGI": "> 100 µM"}

Tell me the measured TGI of CN(NC(=O)c1ccco1)C1=NCCCCN1 , please.
> 100 µM

Next entry: CN(C)CCNC(=O)c1ccc2ccc3cccnc3c2n1
39.6 µM

Next entry: COc1cc2c(cc1OC)C1c3ccccc3C(C#N)(C2)N(C(=O)c2ccccc2)C1O (centres undefined)
> 100 µM

Next entry: C=C1C(=O)O[C@@H]2C[C@]3(C)[C@@H](C[C@H]12)[C@](C)(O)CC[C@@H]3O
> 100 µM

Next entry: [Cu+2].[Cu+2].[O-]c1ccccc1C=Nc1ccccc1[O-].[O-]c1ccccc1C=Nc1ccccc1[O-]
36.5 µM

Next entry: O=C1Nc2ccc(F)c3c(OCCO)cc(-c4ccc[nH]4)c1c23
12.8 µM

Next entry: COc1ccc(-c2cc3c4c(nc5ccccc5c4c2)CC(c2cc(OC)c(OC)c(OC)c2)O3)cc1 (centres undefined)
3.89 µM

----------
# System: NCI-H522 lung
# Method Summary: NCI tumour cell line growth inhibition, 48 h; in the data active means GI50 below about 0.43 µM; inactive means the rest
Bench note: report the call from T for active, F for inactive

Record excerpt, results attached:
{"Molecule": "C[C@@H]1O[C@@H](O[C@H]2C[C@@H](O)[C@]3(CO)C4C(CC[C@]3(O)C2)[C@@]2(O)CC[C@H](C3=CC(=O)OC3)[C@@]2(C)C[C@H]4O)[C@H](O)[C@H](O)[C@H]1O (some centres undefined)", "Category Label": "T"}
{"Molecule": "c1ccc2c(c1)O[As](O[As]1Oc3ccccc3O1)O2", "Category Label": "F"}
{"Molecule": "Nc1ccccc1C#C/C=C\\C#Cc1ccc(F)cc1F", "Category Label": "F"}

Below: the item to evaluate.
Please share the test call associated with COC1=CC(c2ccc[nH]2)=N/C1=C\c1[nH]c(C)c(C(=O)CCC(=O)Oc2ccc3c(c2)CCC2C3CC[C@]3(C)C(=O)CC[C@@H]23)c1C (some centres undefined) .
F

----------
# Tested on: A549 NSCLC
# Method Summary: NCI tumour cell line growth inhibition, 48 h
Quantity Name: TGI

For orientation, consider the following solved cases.
{"Compound": "O=C(CCSC(CC(=O)c1ccc(Cl)cc1)c1ccc(Cl)cc1)Nc1ccc(Cl)cc1 (stereo not given)", "Quantity Name": "TGI", "Obs Value": "40 µM"}
{"Compound": "COc1ccc2c(O)c3[n+](cc2c1OC)CCc1cc2c(cc1-3)OCO2", "Quantity Name": "TGI", "Obs Value": "> 100 µM"}
{"Compound": "CCOC(=O)CC(C)C(C#N)(OP1(=O)OC(c2ccccc2)C(C)N1C)c1ccccc1 (stereo not given)", "Quantity Name": "TGI", "Obs Value": "> 100 µM"}
{"Compound": "COC(=O)[C@]1(C)CCCn2c(=O)n(-c3ccccc3)c(=O)n21", "Quantity Name": "TGI", "Obs Value": "> 100 µM"}
{"Compound": "COc1ccc(-c2cc3cccc(OC)c3c(=O)o2)cc1OC", "Quantity Name": "TGI", "Obs Value": "> 100 µM"}
{"Compound": "CN(C)c1c(Cl)c(=O)oc2c1ccc1nc(-c3ccccc3)sc12", "Quantity Name": "TGI", "Obs Value": "> 100 µM"}
{"Compound": "COc1ccc2c(c1)C(=O)c1c-2c(NCCCN(C)C)nc2ccccc12", "Quantity Name": "TGI", "Obs Value": "6 µM"}
{"Compound": "CN(C)CCC1(C2=CCCC2)CC/C(=C\\c2ccc3c(c2)OCO3)C1=O (stereo not given)", "Quantity Name": "TGI", "Obs Value": "31.8 µM"}
{"Compound": "O=c1cnn(C2OC(CO)C(O)C(F)C2O)c(=O)[nH]1 (stereo not given)", "Quantity Name": "TGI", "Obs Value": "> 100 µM"}

The record that follows has no TGI shown yet.
Find TGI (A549 NSCLC) for the entry C[C@]12CC[C@H](O)CC1=CC[C@@H]1[C@@H]2CC[C@]2(C)C(=O)/C(=C/c3cccc(OCCCn4ccnc4)c3)C[C@@H]12
28.8 µM
